All values here come from patent EP4707280A1.

System: Digitaria ciliaris
Test: Test Example 4: herbicidal effect test by stem and leaf treatment in upland field
Type: in vivo
Conditions: Digitaria ciliaris; 120 g per 10 ares; sprayed seven days after sowing, upland soil; 14 days after application; read-out: weed inhibition rate
ATTRIBUTE MEASURED: inhibition at 1200 g/ha

Challenge: Data request, read-out inhibition at 1200 g/ha, for CC(C)C12CC(OCc3c(F)cccc3Cl)C(C)(CC1I)O2 (centres unmarked)
Response given: ≥ 80%

Challenge: Proceed to CC(C)C12CC(OCc3c(F)cccc3Cl)C(C)(CC1Br)O2 (centres unmarked)
Response given: ≥ 80%

Challenge: Same thing, different compound: CC(C)C12CC(OCc3ccccc3Br)C(C)(CC1I)O2 (centres unmarked)
Response given: ≥ 80%

Challenge: What do we get for CC(C)[C@]12C[C@@H](OCC3CCCCC3)[C@](C)(C[C@@H]1I)O2 ?
Response given: ≥ 80%

Challenge: And the next one, CC(C)[C@]12C[C@@H](OCc3ccccc3Cl)[C@](C)(C[C@@H]1Br)O2 ?
Response given: ≥ 80%

Challenge: // repeat for Cc1ccccc1CO[C@@H]1C[C@]2(C(C)C)O[C@@]1(C)CC2=O and report
Response given: ≥ 80%

More entries:
Challenge: Recorded inhibition at 1200 g/ha for CC(C)C12CC(OCc3ccccc3)C(C)(CC1I)O2 (centres unmarked) , please?
Response given: ≥ 80%

Challenge: CC(C)[C@]12C[C@@H](OCc3c(F)cccc3F)[C@](C)(C[C@@H]1O)O2 ?
Response given: ≥ 80%

Challenge: Continue with CCOC(C)O[C@H]1C[C@]2(C)O[C@@]1(C(C)C)C[C@H]2OCc1c(F)cccc1F (some centres unmarked)
Response given: ≥ 80%

Challenge: Same lookup for Cc1cccc(C)c1COC1CC2(C(C)C)OC1(C)CC2I (centres unmarked) , please.
Response given: ≥ 80%

Challenge: Next up: CCc1ccccc1CO[C@@H]1C[C@]2(C(C)C)O[C@@]1(C)C[C@@H]2Br
Response given: ≥ 80%

Challenge: # repeat for Cc1ccccc1CO[C@@H]1C[C@]2(C(C)C)O[C@@]1(C)C[C@@H]2F
Response given: ≥ 80%

Challenge: // repeat for Cc1ccccc1COC1CC2(C(C)C)OC1(C)CC2Br (centres unmarked) and report
Response given: ≥ 80%

Challenge: Query CC(C)=CCO[C@H]1C[C@@]2(C(C)C)O[C@]1(C)CC2Br (mixture of isomers) next
Response given: ≥ 80%

Challenge: Another compound to check: CC(C)=CCOC1CC2(C(C)C)OC1(C)CC2I (centres unmarked)
Response given: ≥ 80%

Challenge: Also check CC(C)[C@]12C[C@@H](OCc3ccccc3F)[C@](C)(C[C@@H]1C)O2 [1-93]
Response given: ≥ 80%

Challenge: Also Cc1ccccc1CO[C@@H]1C[C@]2(C(C)C)O[C@@]1(C)CC2C (some centres unmarked) , if possible.
Response given: ≥ 80%

Challenge: Now the compound CC(C)[C@]12C[C@@H](OCc3ccccc3F)[C@](C)(CC1c1ccccc1)O2 (some centres unmarked)
Response given: ≥ 80%

Challenge: Another compound to look at: CC(C)[C@@]12C[C@H](OCc3c(F)cccc3Cl)[C@@](C)(C[C@H]1Br)O2
Response given: ≥ 80%

Challenge: Then CC(C)C12CC(OCc3ccccc3OC(F)(F)F)C(C)(CC1Br)O2 (centres unmarked) ?
Response given: ≥ 80%

Challenge: Entry CC(C)[C@]12C=C[C@](C)(O1)[C@H](OCc1c(F)cccc1F)C2 please
Response given: ≥ 80%

Challenge: # repeat for CO[C@H]1C[C@]2(C)O[C@@]1(C(C)C)C[C@H]2OCc1ccccc1
Response given: ≥ 80%

Challenge: What about CC(C)[C@]12C[C@@H](OCc3ccc(Cl)cc3Cl)[C@](C)(C[C@@H]1Br)O2 ?
Response given: ≥ 80%

Challenge: Next up: CC(C)[C@]12C[C@@H](OCc3ccccc3Br)[C@](C)(CC1=O)O2
Response given: ≥ 80%

Challenge: How about this compound: CC(C)=CCOC1CC2(C(C)C)OC1(C)CC2Br (centres unmarked)
Response given: ≥ 80%

Challenge: Another: CC(C)[C@@]12C[C@H](OCc3ccccc3F)[C@@](C)(C[C@H]1I)O2
Response given: ≥ 80%

Challenge: Please give the result for CC(C)CC1C[C@]2(C)O[C@@]1(C(C)C)C[C@H]2OCc1ccccc1F (some centres unmarked) too.
Response given: ≥ 80%
